# assay.method.text: Human Microsomal Clearance Assay
# Format: in vitro ADME
# condition.notes: pH 7.4; human liver microsomes 0.5 mg/mL, 1 μM compound, 2 mM NADPH
recorded.endpoint: half-life at 1 μM (h)

| molecule | measured.result |
| --- | --- |
| N#Cc1ccc(N2CC3(CCC4(CC4)CC3)c3cc(NS(=O)(=O)CCO)ccc3C2=O)nc1NC1CCC(F)(F)C1 (single isomer, unassigned) [Compound 110] | 2.52 |
| N#Cc1ccc(N2CC3(CCC4(CC4)CC3)c3cc(NS(=O)(=O)CCO)ccc3C2=O)nc1NC1CC(F)(F)C1 [Compound 56] | 2.37 |
| CC1(C)CCC2(CC1)CN(c1ccc(C#N)c(NC3CC(F)(F)C3)n1)C(=O)c1ccc(NS(=O)(=O)CCO)cc12 [Compound 95] | 1.98 |

----------
# Test system: OVCAR3 Cells
# assay.method.text: OVCAR3 Cell Viability Assay (CellTiter-Glo)
# Type: cell-based
# condition.notes: Homo sapiens, OVCAR-3, 144 h, 6 days incubation, read-out: OVCAR3 CTG IC50
pIC50: −log10 of the molar value.
recorded.endpoint: pIC50

| molecule | system | pIC50 |
| --- | --- | --- |
| O=C1c2ccc(NS(=O)(=O)CCO)cc2C2(CCC3(CC3)CC2)CN1c1cccc(N2CCC3CC32)n1 (centres unmarked) | OVCAR3 Cells | 5.70 to 6.70 |
| O=C1c2ccc(NS(=O)(=O)CCO)cc2C2(CCC3(CC3)CC2)CN1c1ccc(C(F)F)c(N2CCC(F)(F)CC2)n1 | OVCAR3 Cells | > 6.70 |
| CN1CCN(c2ccc(N3CC4(CCC5(CC5)CC4)c4cc(NS(=O)(=O)CCO)ccc4C3=O)nc2N2CCC(F)(F)CC2)C(=O)C1 | OVCAR3 Cells | > 6.70 |
| NC(=O)c1ccc(N2CC3(CCC4(CC4)CC3)c3cc(NS(=O)(=O)CCO)ccc3C2=O)nc1N1CCC(F)(F)CC1 | OVCAR3 Cells | > 6.70 |
| CN(c1cccc(N2CC3(CCC4(CC4)CC3)c3cc(NS(=O)(=O)CCO)ccc3C2=O)n1)C1CC(F)(F)C1 | OVCAR3 Cells | > 6.70 |

Turning now to a further molecule:
Reported pIC50 for OVCAR3 Cells, given `CC(C)(C)NS(=O)(=O)c1cccc(N2CC3(CCC4(CC4)CC3)c3cc(NS(=O)(=O)CCO)ccc3C2=O)c1` ?
> 6.70

----------
# Tested on: OVCAR3 Cells
# assay.method.text: OVCAR3 Cell Viability Assay (CellTiter-Glo)
# Type: cell-based
# condition.notes: Homo sapiens, OVCAR-3, 144 h, 6 days incubation, read-out: OVCAR3 CTG IC50
pIC50: −log10 of the molar value.
recorded.endpoint: pIC50

Sample records with pIC50:
| compound | recorded.endpoint | measured.result |
| --- | --- | --- |
| CC1(C)CCC2(CC1)CN(c1ccc(C#N)c(NC3CC(F)(F)C3)n1)C(=O)c1cc(F)c(NS(=O)(=O)CCO)cc12 [Compound 121] | pIC50 | > 6.70 |
| O=C1c2ccc(NS(=O)(=O)CCO)cc2C2(CCC3(CC3)CC2)CN1c1ccc(F)c(N2CCCC(F)(F)CC2)n1 [Compound 47] | pIC50 | > 6.70 |
| O=C1c2ccc(NS(=O)(=O)CCO)cc2C2(CCC3(CC3)CC2)CN1c1ccc(OC(F)F)c(N2CCC(F)(F)CC2)n1 [Compound 155] | pIC50 | > 6.70 |
| CC1(F)CCN(c2nc(N3CC4(CCC5(CC5)CC4)c4cc(NS(=O)(=O)CCO)ccc4C3=O)ccc2F)CC1 [Compound 40] | pIC50 | > 6.70 |
| CC1(C)CCC2(CC1)CN(c1ccc(C#N)c(NC3CC(F)(F)C3)n1)C(=O)c1ccc(NS(=O)(=O)CCO)cc12 [Compound 95] | pIC50 | > 6.70 |
| N#Cc1ccc(N2CC3(CCC4(CC4)CC3)c3cc(NS(=O)(=O)C(F)(F)F)ccc3C2=O)nc1N1CCC(F)(F)CC1 [Compound 159] | pIC50 | 5.70 to 6.70 |
| O=C1c2ccc(NS(=O)(=O)CCO)cc2C2(CCC3(CC3)CC2)CN1c1ccc(F)c(OC2CC(F)(F)C2)n1 [Compound 61] | pIC50 | 5.70 to 6.70 |
| CC1(F)CCC2(CC1)CN(c1ccnc(N3CCC(F)(F)CC3)n1)C(=O)c1ccc(NS(=O)(=O)CCO)cc12 (centres unmarked) [Compound 103] | pIC50 | 5.70 to 6.70 |

Quick one: pIC50 of NC(=O)c1ccc(N2CC3(CCC4(CC4)CC3)c3cc(NS(=O)(=O)CCO)ccc3C2=O)nc1NC1CC(F)(F)C1 [Compound 167] ?
> 6.70

Quick one: pIC50 of N#Cc1ccc(N2CC3(CCC4(CCC4)CC3)c3cc(NS(=O)(=O)CCO)ccc3C2=O)nc1NC1CC(F)(F)C1 [Compound 115] ?
> 6.70

Quick one: pIC50 of CN1CCN(c2nc(N3CC4(CCC5(CC5)CC4)c4cc(NS(=O)(=O)CCO)ccc4C3=O)ccc2F)CC1 [Compound 46] ?
5.70 to 6.70

----------
# System: OVCAR3 Cells
# assay.method.text: OVCAR3 Cell Viability Assay (CellTiter-Glo)
# Type: cell-based
# condition.notes: Homo sapiens, OVCAR-3, 144 h, 6 days incubation, read-out: OVCAR3 CTG IC50
IC50: recorded values

Sample records with IC50:
| molecule | system | IC50 |
| --- | --- | --- |
| N#Cc1ccc(N2CC3(CCC4(CC4)CC3)c3cc(NS(=O)(=O)CCO)ccc3C2=O)nc1N1CCC(F)(F)CC1 | OVCAR3 Cells | < 200 nM |
| N#Cc1ccc(N2CC3(CCC4(CC4)CC3)c3cc(NS(=O)(=O)CCO)cnc3C2=O)nc1N1CCC(F)(F)CC1 | OVCAR3 Cells | 200 to 2000 nM |
| O=C1c2ccc(NS(=O)(=O)CCO)cc2C2(CCC3(CC3)CC2)CN1c1ccnc(N2CC3CCC2C3)n1 (stereo not drawn) | OVCAR3 Cells | 200 to 2000 nM |
| Cc1nccc(-c2ccc(N3CC4(CCC5(CC5)CC4)c4cc(NS(=O)(=O)CCO)ccc4C3=O)nc2NC2CC(F)(F)C2)n1 | OVCAR3 Cells | < 200 nM |
| N#Cc1ccc(N2CC3(CCC(F)(F)CC3)c3cc(NS(=O)(=O)CCO)ccc3C2=O)nc1N1CCC(F)(F)CC1 | OVCAR3 Cells | < 200 nM |
| O=C1c2ccc(NS(=O)(=O)CCO)cc2C2(CCC3(CC3)CC2)CN1c1ccc(O)c(N2CCC(F)(F)CC2)n1 | OVCAR3 Cells | < 200 nM |

Quick one: IC50 of `N#Cc1ccc(N2CC3(CCC4(CC4)CC3)c3cc(NS(=O)(=O)CCO)ccc3C2=O)nc1CN1CC(F)(F)C1` ?
> 2000 nM

Quick one: IC50 of `CC1CCN(c2nc(N3CC4(CCC5(CC5)CC4)c4cc(NS(=O)(=O)CCO)ccc4C3=O)ccc2F)CC1` ?
200 to 2000 nM

Quick one: IC50 of CC1(F)CCC2(CC1)CN(c1ccnc(NC3CC(F)(F)C3)n1)C(=O)c1ccc(NS(=O)(=O)CCO)cc12 (stereo not drawn) ?
200 to 2000 nM

Quick one: IC50 of `Cc1ncc(N2CC3(CCC4(CC4)CC3)c3cc(NS(=O)(=O)CCO)ccc3C2=O)nc1N1CCC(F)(F)CC1` ?
< 200 nM

Quick one: IC50 of `Cn1cc(-c2ccc(N3CC4(CCC5(CC5)CC4)c4cc(NS(=O)(=O)CCO)ccc4C3=O)nc2N2CCC(F)(F)CC2)cn1` ?
< 200 nM

Quick one: IC50 of `CCS(=O)(=O)Nc1ccc2c(c1)C1(CCC3(CC3)CC1)CN(c1ccnc(NC3CC(F)(F)C3)n1)C2=O` ?
< 200 nM

Quick one: IC50 of `N#Cc1ccc(N2CC3(CCC4(CC4)CC3)c3cc(NS(=O)(=O)CC(F)(F)F)ccc3C2=O)nc1N1CCC(F)(F)CC1` ?
< 200 nM

----------
# Tested on: OVCAR3 Cells
# assay.method.text: OVCAR3 Cell Viability Assay (CellTiter-Glo)
# Format: cell-based
# condition.notes: Homo sapiens, OVCAR-3, 144 h, 6 days incubation, read-out: OVCAR3 CTG IC50
pIC50: −log10 of the molar value.
recorded.endpoint: pIC50

| smiles.text | pIC50 |
| --- | --- |
| COc1ncc(N2CC3(CCC4(CC4)CC3)c3cc(NS(=O)(=O)CCO)ccc3C2=O)nc1N1CCC(F)(F)CC1 | > 6.70 |

Quick one: pIC50 of `CN1CC=C(c2ccc(N3CC4(CCC5(CC5)CC4)c4cc(NS(=O)(=O)CCO)ccc4C3=O)nc2N2CCC(F)(F)CC2)CC1` ?
5.70 to 6.70

Quick one: pIC50 of `O=C1c2ccc(NS(=O)(=O)CC(F)(F)F)cc2C2(CCC3(CC3)CC2)CN1c1ccnc(NC2CC(F)(F)C2)n1` ?
< 5.70

Quick one: pIC50 of `Cc1cc(NC(=O)c2ccc(NS(=O)(=O)CCO)cc2C2=CCC3(CC2)CC3)nc(N2CCC(F)(F)CC2)n1` ?
> 6.70

Quick one: pIC50 of `COCCOc1ccc(N2CC3(CCC4(CC4)CC3)c3cc(NS(=O)(=O)CCO)ccc3C2=O)nc1N1CCC(F)(F)CC1` ?
> 6.70

Quick one: pIC50 of `CC(C)[C@H](N)C(=O)OCCS(=O)(=O)Nc1ccc2c(c1)C1(CCC3(CC3)CC1)CN(c1ccnc(NC3CC(F)(F)C3)n1)C2=O` ?
> 6.70

Quick one: pIC50 of `Cn1cc(N2CC3(CCC4(CC4)CC3)c3cc(NS(=O)(=O)CCO)ccc3C2=O)nc1N1CCC(F)(F)CC1` ?
5.70 to 6.70
